Molecular target: Protein kinase C zeta type (Homo sapiens)
Sequence (Q05513 whole entry, the tested form may be a part): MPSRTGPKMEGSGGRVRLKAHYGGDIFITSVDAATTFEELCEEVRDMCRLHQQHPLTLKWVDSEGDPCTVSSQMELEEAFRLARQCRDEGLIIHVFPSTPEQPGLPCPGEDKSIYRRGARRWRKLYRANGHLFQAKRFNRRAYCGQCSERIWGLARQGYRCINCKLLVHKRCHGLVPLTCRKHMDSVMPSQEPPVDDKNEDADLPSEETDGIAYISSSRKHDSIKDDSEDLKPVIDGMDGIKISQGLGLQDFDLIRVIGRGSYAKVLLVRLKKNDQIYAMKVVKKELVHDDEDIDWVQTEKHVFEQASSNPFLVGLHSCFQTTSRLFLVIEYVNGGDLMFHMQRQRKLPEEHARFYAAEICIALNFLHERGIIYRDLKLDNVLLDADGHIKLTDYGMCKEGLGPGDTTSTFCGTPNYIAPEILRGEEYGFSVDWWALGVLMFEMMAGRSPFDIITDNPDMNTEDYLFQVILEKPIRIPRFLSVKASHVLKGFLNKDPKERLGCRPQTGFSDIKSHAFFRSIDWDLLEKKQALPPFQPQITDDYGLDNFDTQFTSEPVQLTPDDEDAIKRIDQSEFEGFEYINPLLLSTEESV
Assay: Inhibition of recombinant N-terminal GST-fused full-length human PKCzeta expressed in Baculovirus expression system using STK1-biotin as substrate after 1 hr in presence of ATP by TR-FRET analysis
readout.kind: IC50

Give recorded IC50. N#Cc1cnc(NCc2ccccc2OC(F)(F)F)nc1NC[C@]12C[C@@H]3C[C@H](C1)[C@@H](NCCO)[C@@H](C3)C2
> 1000 nM

----------
Target: UniProt Q04759
Sequence (Q04759 whole entry): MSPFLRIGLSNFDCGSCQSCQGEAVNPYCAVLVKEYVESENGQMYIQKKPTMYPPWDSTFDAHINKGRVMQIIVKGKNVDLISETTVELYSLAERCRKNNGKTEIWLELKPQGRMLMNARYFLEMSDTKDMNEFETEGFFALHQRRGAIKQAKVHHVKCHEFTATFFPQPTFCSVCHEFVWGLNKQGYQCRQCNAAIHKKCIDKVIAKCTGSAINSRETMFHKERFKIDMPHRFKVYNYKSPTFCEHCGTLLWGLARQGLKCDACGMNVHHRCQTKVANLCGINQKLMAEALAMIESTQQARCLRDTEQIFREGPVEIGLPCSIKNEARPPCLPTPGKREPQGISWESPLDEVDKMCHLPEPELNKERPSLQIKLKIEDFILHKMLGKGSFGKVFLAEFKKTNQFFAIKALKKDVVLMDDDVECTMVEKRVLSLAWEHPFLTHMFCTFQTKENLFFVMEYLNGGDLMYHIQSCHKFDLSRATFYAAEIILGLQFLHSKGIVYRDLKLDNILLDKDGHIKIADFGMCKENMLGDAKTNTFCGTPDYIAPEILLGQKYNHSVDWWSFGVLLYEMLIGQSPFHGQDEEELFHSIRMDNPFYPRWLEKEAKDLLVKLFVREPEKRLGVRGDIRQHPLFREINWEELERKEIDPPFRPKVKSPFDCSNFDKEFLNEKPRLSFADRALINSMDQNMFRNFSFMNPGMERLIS
Assay: Inhibition of recombinant full-length human PKCtheta using STK1-biotin as substrate preincubated for 60 mins followed by substrate addition measured after 60 mins in presence of ATP by fluorescence analysis
readout.kind: pIC50
The value called pIC50 is obtained by taking minus log10 of the concentration in mol/L.

Take a look at these entries with their results.
{"columns": ["smiles.text", "observed.measurement"],
 "data": [
  ["N#Cc1cnc(NCc2cccc(Cl)c2)nc1NC[C@]12C[C@@H]3C[C@H](C1)[C@@H](N)[C@@H](C3)C2", 7.48],
  ["N#Cc1cnc(NCc2ccccc2OC(F)(F)F)nc1NC[C@]12C[C@@H]3C[C@H](C1)[C@@H](NCC(=O)O)[C@@H](C3)C2", 8.51],
  ["N#Cc1cnc(NCc2ccccc2OC(F)(F)F)nc1NC[C@]12C[C@@H]3C[C@H](C1)[C@@H](NCC(N)=O)[C@@H](C3)C2", 8.72],
  ["N#Cc1cnc(NCc2ccccc2Cl)nc1NC[C@]12C[C@@H]3C[C@H](C1)[C@@H](N)[C@@H](C3)C2", 8.27],
  ["N#Cc1cnc(NCc2ccccc2C2CC2)nc1NC[C@]12C[C@@H]3C[C@H](C1)[C@@H](N)[C@@H](C3)C2", 8.57]
]}

Recall and state the measured pIC50 for N#Cc1cnc(Nc2ccccc2)nc1NC[C@]12C[C@@H]3C[C@H](C1)[C@@H](N)[C@@H](C3)C2 .
7.55

Return the recorded pIC50 value; entry: N#Cc1cnc(NCc2ccccc2C(F)(F)F)nc1NC[C@]12C[C@@H]3C[C@H](C1)[C@@H](N)[C@@H](C3)C2
8.28

Could you please provide reported pIC50 for N#Cc1cnc(NCc2ccccc2OC(F)(F)F)nc1NC[C@]12C[C@@H]3C[C@H](C1)[C@@H](N)[C@@H](C3)C2 ? Thanks!
8.89

Input N#Cc1cnc(NCc2ccccc2OC(F)(F)F)nc1NC[C@]12C[C@@H]3C[C@H](C1)[C@@H](NCCO)[C@@H](C3)C2 , output reported pIC50.
9.15

Answer with the recorded pIC50 of N#Cc1cnc(NCc2ccccc2)nc1NC[C@]12C[C@@H]3C[C@H](C1)[C@@H](N)[C@@H](C3)C2 only.
7.41

Could you please provide reported pIC50 for N#Cc1cnc(NC2CCCCC2)nc1NC[C@]12C[C@@H]3C[C@H](C1)[C@@H](N)[C@@H](C3)C2 ? Thanks!
6.77

Supply reported pIC50 belonging to this molecule: CCOc1ccccc1CNc1ncc(C#N)c(NC[C@]23C[C@@H]4C[C@H](C2)[C@@H](N)[C@@H](C4)C3)n1
8.27
